System: IL-17 production by CD4+ T cells under conditions which favor Th17 differentiation
Assay: Human Th17 assay (IL-17 production by CD4 T cells)
Assay type: cell-based
Conditions: Homo sapiens
pIC50: −log10 of the molar value.
# pIC50 listing for each entry below

compound	measured.target	pIC50
CCOc1c(OC)nc2ccc(C(O)(c3ccc(C(F)(F)F)nc3)c3cncn3C)cc2c1Cl (single isomer, unassigned) [Example 91c]	IL-17 production by CD4+ T cells under conditions which favor Th17 differentiation	6.28
Cn1cncc1C(O)(c1ccc(C(F)(F)F)nc1)c1ccc2nc(N3CCC3)c(OCC(F)(F)F)c(Cl)c2c1 (single isomer, unassigned) [Example 89c]	IL-17 production by CD4+ T cells under conditions which favor Th17 differentiation	7.10
CC(C)Oc1c(N2CCC2)nc2ccc(C(O)(c3ccc(Cl)cc3)c3cncn3C)cc2c1Cl (single isomer, unassigned) [Example 94c]	IL-17 production by CD4+ T cells under conditions which favor Th17 differentiation	6.42
COc1nc2ccc(C(O)(c3ccccc3)C3CCN(C(C)=O)CC3)cc2c(Cl)c1C1CCOCC1 (single isomer, unassigned)	IL-17 production by CD4+ T cells under conditions which favor Th17 differentiation	6.68

---

Molecular target: human RORγt LBD fused to the DNA binding domain of the GAL4 protein (Homo sapiens (Human))
Test: RORγt (LBD) reporter assay in HEK293T cells
Format: cell-based
Details: HEK-293T, read-out: RORγt (LBD) Reporter Assay, % inhibition @ 6 μM, @ 6 μM
Decision: inhibition at 6 µM compared against 50%; not below it gives Y, below it gives N.

compound	group
COc1nc2ccc(C(O)(c3cncn3C)C3CCN(S(C)(=O)=O)CC3)cc2c(Cl)c1CC1CCOCC1 (centres unmarked) [Example 6a]	N
COc1nc2ccc(C(O)(c3ccc(C)nc3C)c3cnnn3C)cc2c(Cl)c1CN1CCC(F)(F)CC1 (centres unmarked) [Example 107a]	Y
COc1nc2ccc(C(O)(c3ccc(C(F)(F)F)nc3)c3cncn3C)cc2c(Cl)c1CN1CCC(C(F)(F)F)CC1 (single isomer, unassigned) [Example 112b]	Y
COc1nc2ccc(C(O)(c3ccc(C)nc3C)c3cnnn3C)cc2c(Cl)c1CC1CCC(F)(F)CC1 (single isomer, unassigned) [Example 1b]	Y
COc1nc2ccc(C(O)(c3ccnc(C(F)(F)F)c3)c3cncn3C)cc2c(Cl)c1CN1CCC(C(F)(F)F)CC1 (single isomer, unassigned) [Example 100b]	Y

---

# RORγt (LBD) Reporter Assay, % inhibition @ 6 μM listing for each entry below
Target: human RORγt LBD fused to the DNA binding domain of the GAL4 protein (Homo sapiens (Human), UniProt P51449)
Sequence (P51449 258-518): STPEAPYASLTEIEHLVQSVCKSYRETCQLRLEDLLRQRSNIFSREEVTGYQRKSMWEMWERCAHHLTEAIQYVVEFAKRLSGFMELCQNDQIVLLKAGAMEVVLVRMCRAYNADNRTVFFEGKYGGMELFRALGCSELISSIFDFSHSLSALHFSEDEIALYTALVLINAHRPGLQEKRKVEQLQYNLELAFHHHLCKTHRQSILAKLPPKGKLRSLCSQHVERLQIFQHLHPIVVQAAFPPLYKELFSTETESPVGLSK
Assay: RORγt (LBD) reporter assay in HEK293T cells
Format: cell-based
Conditions: @ 6 μM
parameter.measured: RORγt (LBD) Reporter Assay, % inhibition @ 6 μM (%)

compound	val
COc1nc2ccc(C(O)(c3ccc(C)nc3C)c3cnnn3C)cc2c(Cl)c1OC1CCOCC1 (single isomer, unassigned) [Example 69b]	37
COc1nc2ccc(C(O)(c3cncn3C)C3CCN(S(C)(=O)=O)CC3)cc2c(Cl)c1CC1CCOCC1 (single isomer, unassigned)	26
COc1nc2ccc(C(O)(c3ccc(C)nc3C)c3cnnn3C)cc2c(Cl)c1OC1CCOCC1 (single isomer, unassigned) [Example 69c]	61
COc1nc2ccc(C(O)(c3ccc(C)nc3C)c3cnnn3C)cc2c(Cl)c1CN1CCC(C(F)(F)F)CC1 (single isomer, unassigned) [Example 103c]	99
COc1nc2ccc(C(O)(c3ccc(C)nc3C)c3cnnn3C)cc2c(Cl)c1CN1CCC(F)CC1 (single isomer, unassigned) [Example 108c]	14
COc1nc2ccc(C(O)(c3ccc(C)nc3C)c3cnnn3C)cc2c(Cl)c1OCc1nccs1 (single isomer, unassigned) [Example 73c]	−80
COc1nc2ccc(C(O)(c3ccc(C)nc3C)c3cnnn3C)cc2c(Cl)c1OCc1nccs1 (single isomer, unassigned) [Example 73b]	−15
COc1nc2ccc(C(O)(c3ccc(C)nc3C)c3cnnn3C)cc2c(Cl)c1OCC1CC1 (single isomer, unassigned) [Example 68c]	87
COc1nc2ccc(C(O)(c3ccc(C)nc3C)c3cnnn3C)cc2c(Cl)c1CN1CCC(n2cccn2)CC1 (single isomer, unassigned) [Example 105b]	33
COc1nc2ccc(C(O)(c3cncn3C)C3CCN(C(C)=O)CC3)cc2c(Cl)c1CC1CCOCC1 (single isomer, unassigned)	36
